Experiment: NCI Yeast Anticancer Drug Screen. Data for the cln2 rad14 strain (AID 165);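 note: 0% = growth equal to vehicle treated cultures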
Conditions: S. cerevisiae cln2 rad14 strain, at 5.0 µM (retest, dose inferred, filed as 0.5), active compounds read high
The panel holds about 79,000 compounds, 15% with a hit somewhere; the sample as a whole holds those more often.
Each entry below lists one item and its recorded growth inhibition value.
Respond numerically; units are % and should not be typed.

Known growth inhibition results, listed for orientation:
molecule	recorded-value
C=C(CCC(C)C1CCC2(C)C3=C(CC(O)C12C)C1(C)CCC(O)C(C)(C)C1CC3)C(C)C(=O)O (stereo not drawn)	40
CCCCCCCCCCCCCCCCCC(=O)OCC(O)COC(=O)CCCCCCCCCCCCCCCCC	0

Attention now turns to another entry.
What does the record list as growth inhibition for COc1cc2oc(-c3ccc(O)cc3O)c(CC=C(C)C)c(=O)c2c(O)c1/C=C/C(C)C ?
24

====

Experiment: NCI Yeast Anticancer Drug Screen. Data for the mlh1 rad18 strain (AID 175)
Conditions: S. cerevisiae mlh1 rad18 strain growth inhibition; at 50.0 µM (retest, dose inferred, filed as 5.0); active compounds read high
This is part of a sample that, as a whole, favours compounds with a hit. Of some 79,000 tested, about 15% had one in any assay.
Please mark class 1 if the recorded growth inhibition is equal to or greater than 80%, and class 0 if it falls below.

Would you please look over these solved cases?
molecule	discrete-label
O=C(O)C1CC2C3(Cl)C(Cl)=C(Cl)C(Cl)C2(CC1c1c2ccc(=O)c(O)c-2oc2c(O)c(O)ccc12)C3(Cl)Cl (stereo not given)	class 1
N#CSc1cc(SC#N)c2ccccc2c1N	class 0
C/C=C(/CN/C(=C\[N+](=O)[O-])c1ccccc1)c1ccccc1	class 1
O=C1Nc2ccccc2/C1=C\c1ccccn1	class 1

Okay, next one:
Could you tell me if the measured growth inhibition of CCN(CC)C(=O)C1(OC(C)=O)CCCCC1 reaches 80% or more?
class 0

====

Assay: NCI Yeast Anticancer Drug Screen. Data for the mlh1 rad18 strain (AID 175)
Details: S. cerevisiae mlh1 rad18 strain growth inhibition; at 5.0 µM (retest, dose inferred, filed as 0.5); active compounds read high
This is part of a sample that, as a whole, favours compounds with a hit. Of some 79,000 tested, about 15% had one in any assay.
Each entry below lists one item and its recorded growth inhibition value.
Respond numerically; units are % and should not be typed.

molecule	recorded-value
COc1ccc(/C=N/Nc2ccccc2)cc1	8
CNC(=O)OC(C)CN1c2ccccc2Sc2ccccc21 (stereo unspecified)	-11
CN1CCN(CCOC(=O)N2c3ccccc3Sc3ccccc32)CC1	-4
CC1=NC(C)=C(/C(C)=N/NC(=O)c2ccccc2O)C(C)/C1=C(/C)NNC(=O)c1ccccc1O (stereo unspecified)	2
Clc1ccc(N=Cc2c3ccccc3cc3ccccc23)c(Cl)c1	-7

Attention now turns to another entry.
What does the record list as growth inhibition for CN(C)CCNc1ccc(O)c2sc3ccccc3c(=O)c12 ?
-5

====

Assay: NCI Yeast Anticancer Drug Screen. Data for the cln2 rad14 strain (AID 165);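 note: 0% = growth equal to vehicle treated cultures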
Conditions: S. cerevisiae cln2 rad14 strain, at 5.0 µM (retest, dose inferred, filed as 0.5), active compounds read high
Protocol: Growth inhibition of yeast strains with defined genetic alterations is measured as a screen for potential anti-cancer activity. Selected strains with alterations in DNA damage repair or cell cycle control were exposed to compounds and growth inhibition was measured relative to vehicle treated controls. The strain used in this assay is cln2 rad14
About 79,000 compounds went through this panel and 15% of them were active in at least one assay; those are over-represented in the sample as a whole. Active and inactive are the calls of the source. Rule as the data show it: active = growth inhibition above about 70%; inactive = the rest.
Each entry below lists one item and its recorded growth inhibition value.

Known growth inhibition results, listed for orientation:
structure-string	recorded-value
Cc1ccc(/C=C/C(=O)c2cc(CN(C)C)c(O)c(CN(C)C)c2)cc1	4% (inactive)
Cn1cc(NC(=O)c2cc(NC(=O)CCCCCCCCC(=O)Nc3cc(C(=O)Nc4cc(C(=O)NCCC(N)N)n(C)c4)n(C)c3)cn2C)cc1C(=O)NCCC(=N)N	45% (inactive)
O=C(Cc1ccc2c(c1)OCO2)c1ccc(O)cc1O	6% (inactive)

What does the record list as growth inhibition for Cc1ccc(SSCCCCCS(=O)O)cc1 ?
-5% (inactive)

What does the record list as growth inhibition for O=c1c(NO)c([N+](=O)[O-])cnn1-c1ccccc1 ?
13% (inactive)

What does the record list as growth inhibition for COc1ccc2nc3cc(Cl)ccc3c(Nc3ccc(O)c(CNCCO)c3)c2c1 ?
-2% (inactive)

What does the record list as growth inhibition for COC(=O)c1ccccc1C#Cc1ccccc1C(=O)OC ?
-2% (inactive)

What does the record list as growth inhibition for CC[N+]1=C(/C=C\c2cc(C)c3cccnc3c2O)C(C)(C)c2ccccc21 ?
-4% (inactive)
